The reported numbers originate from ChEMBL document CHEMBL5370585.

- Tested on: Staphylococcus aureus
- TEST_DETAILS: Antibacterial activity against methicillin-resistant Staphylococcus aureus ATCC 43300 incubated for 16 to 18 hrs by CLSI based broth dilution method
- Assay type: functional
- CONDITIONS: time 16-18 hrs
I'd be grateful if you could share measured MIC for these entries.
Answer shape: numeric part, then the unit.

Consider the following items and state reported MIC for each.
1. Nc1nc(N)c2c(ccc3c2ccn3Cc2ccc3cc(C(=O)O)ccc3c2)n1
2. Cc1cc2c3c(N)nc(N)nc3ccc2n1Cc1cccc2scnc12
3. COc1ccc2nc(Cn3ccc4c5c(N)nc(N)nc5ccc43)sc2c1
4. Nc1nc(N)c2c(ccc3c2ccn3Cc2ccc(B(O)O)c3ccccc23)n1
5. C[C@H]1COc2c(N3CCN(C)CC3)c(F)cc3c(=O)c(C(=O)O)cn1c23 [LEVOFLOXACIN ANHYDROUS]

**A:**
1: 0.004 µg/mL; 2: 1 µg/mL; 3: 0.25 µg/mL; 4: 0.125 µg/mL; 5: 0.25 µg/mL

###

- Tested on: Escherichia coli
- TEST_DETAILS: Antibacterial activity against Escherichia coli ATCC 25922 incubated for 16 to 18 hrs by CLSI based broth dilution method
- Format: functional
- CONDITIONS: time 16-18 hrs
I'd appreciate it if you could supply MIC values for the items below.
Numbers only, in µg/mL.

{"MOLECULE": "Nc1nc(N)c2c(ccc3c2ccn3Cc2ccc3ccccc3n2)n1", "TESTED_ON": "Escherichia coli", "MEASUREMENT_KIND": "MIC", "QUANTITATIVE_READOUT": 0.5}
{"MOLECULE": "CCOC(=O)c1ccc(Cn2ccc3c4c(N)nc(N)nc4ccc32)c2ccccc12", "TESTED_ON": "Escherichia coli", "MEASUREMENT_KIND": "MIC", "QUANTITATIVE_READOUT": 64}
{"MOLECULE": "Nc1nc(N)c2c(ccc3c2ccn3Cc2ccc3ocnc3c2)n1", "TESTED_ON": "Escherichia coli", "MEASUREMENT_KIND": "MIC", "QUANTITATIVE_READOUT": 2}
{"MOLECULE": "Nc1nc(N)c2c(ccc3c2ccn3Cc2nc3ccccc3o2)n1", "TESTED_ON": "Escherichia coli", "MEASUREMENT_KIND": "MIC", "QUANTITATIVE_READOUT": 0.25}
{"MOLECULE": "Nc1nc(N)c2c(ccc3c2ccn3Cc2cccc3ccccc23)n1", "TESTED_ON": "Escherichia coli", "MEASUREMENT_KIND": "MIC", "QUANTITATIVE_READOUT": 1}
{"MOLECULE": "Nc1nc(N)c2c(ccc3c2ccn3Cc2cc3ccccc3s2)n1", "TESTED_ON": "Escherichia coli", "MEASUREMENT_KIND": "MIC", "QUANTITATIVE_READOUT": 0.25}
{"MOLECULE": "Nc1nc(N)c2c(ccc3c2ccn3Cc2ccc3sccc3c2)n1", "TESTED_ON": "Escherichia coli", "MEASUREMENT_KIND": "MIC", "QUANTITATIVE_READOUT": 0.25}
{"MOLECULE": "Nc1nc(N)c2c(ccc3c2ccn3Cc2cccc3cccnc23)n1", "TESTED_ON": "Escherichia coli", "MEASUREMENT_KIND": "MIC", "QUANTITATIVE_READOUT": 0.5}
{"MOLECULE": "Nc1nc(N)c2c(ccc3c2ccn3Cc2ccc3scnc3c2)n1", "TESTED_ON": "Escherichia coli", "MEASUREMENT_KIND": "MIC", "QUANTITATIVE_READOUT": 0.06}
{"MOLECULE": "COc1cc(Cc2cnc(N)nc2N)c2c(c1OC)OC(C1CC1)C=C2 (stereo unspecified)", "TESTED_ON": "Escherichia coli", "MEASUREMENT_KIND": "MIC", "QUANTITATIVE_READOUT": 1}

For every record below, what is its MIC?
1. Nc1nc(N)c2c(ccc3c2ccn3Cc2cc3ccccc3o2)n1
2. COc1ccc2nc(Cn3ccc4c5c(N)nc(N)nc5ccc43)sc2c1
3. COC(=O)c1ccc2nc(Cn3ccc4c5c(N)nc(N)nc5ccc43)ccc2c1

**A:**
0.25
2
2
